As shown below, each of these molecules has a reported melting point value.
Structures can show the parent of a compound that is named as a salt.

Sample records with melting point:
Molecule	Value
COCC(COC)C(=O)N1CC[C@H](NC(=O)c2cc3cc(Cl)ccc3[nH]2)[C@H](NC(=O)c2nc3c(s2)CN(C)CC3)C1 (relative stereo) (as salt: hydrochloride)	178 to 184 °C (dec.)
CC(C)N1CCc2nc(C(=O)N[C@@H]3CN(S(C)(=O)=O)C[C@H]3NC(=O)c3cc4cc(Cl)ccc4[nH]3)sc2C1 (as salt: hydrochloride)	230 to 235 °C (dec.)

Moving on to the next molecule.
**Query** Field request: melting point | item: CN1CCc2nc(C(=O)N[C@@H]3CNCC[C@@H]3NC(=O)c3cc4cc(F)ccc4[nH]3)sc2C1 (relative stereo) (as salt: hydrochloride) [Example 122, dihydrochloride]
**Result** 236 to 245 °C (dec.)
